system: plasma protein; assay: Unbound fraction in plasma; assay type: in vivo; conditions: human, oral, 375 mg, protein binding rate (= [1 − unbound fraction] × 100), humans
Parameter: fraction unbound

Reported fraction unbound ( "Cn1cnc(Cn2c(=O)[nH]/c(=N\c3cc4cn(C)nc4cc3Cl)n(Cc3cc(F)c(F)cc3F)c2=O)n1" ) = 0.983 to 0.988
